quantityKind: glass transition temperature (°C)
Express it in °C; write the number only.

# count of solved cases: 5
INSERT INTO results (molecule, quantitykind, assayresult) VALUES
  ('*Oc1ccc(C(C)(C)c2ccc(OC(=O)SCCCCCCSC(*)=O)cc2)cc1 (repeat unit)', 'glass transition temperature', 58.00),
  ('*CC(OCC(C)C)C1(C)C(=O)OC(=O)C1(*)C (repeat unit)', 'glass transition temperature', 219.00),
  ('*c1ccc2c(c1)C(=O)N(c1ccc(Oc3c(C)cc(C(c4cc(C)c(Oc5ccc(N6C(=O)c7ccc(C(*)(C(F)(F)F)C(F)(F)F)cc7C6=O)cc5)c(C)c4)c4cccc5ccccc45)cc3C)cc1)C2=O (repeat unit)', 'glass transition temperature', 308.00),
  ('*c1ccc2c(c1)C(=O)N(c1cccc(Oc3ccc(Oc4cccc(N5C(=O)c6ccc(C(*)(C(F)(F)F)C(F)(F)F)cc6C5=O)c4)cc3)c1)C2=O (repeat unit)', 'glass transition temperature', 230.00),
  ('*c1ccc(Oc2cccc(Oc3ccc(N4C(=O)c5cccc(Oc6ccc(-c7ccc(Oc8cccc9c8C(=O)N(*)C9=O)cc7)cc6)c5C4=O)cc3)c2)cc1 (repeat unit)', 'glass transition temperature', 224.00);

Look at this molecule and give its reported glass transition temperature. *C(=O)c1ccc2c(c1)C(=O)N(c1ccc(-c3ccc(N4C(=O)c5ccc(*)cc5C4=O)c(C)c3)cc1C)C2=O (repeat unit) 365.00

----------
Parameter: glass transition temperature. Scope: all listed entries.
Please state the figure in °C; there is no need to write the unit.

INSERT INTO measurements (molecule, assayresult) VALUES
  ('*Oc1ccc(S(=O)(=O)c2ccc(Oc3c(C)cc(C(c4cc(C)c(*)c(C)c4)(C(F)(F)F)C(F)(F)F)cc3C)cc2[Si](C)(C)C)c([Si](C)(C)C)c1 (repeat unit)', 197.00),
  ('*O[Si](*)(C)CCCOC(=O)c1cc(OC(=O)c2ccc(OCCOCCOCCOCCOCCOCCOC)cc2)ccc1OC(=O)c1ccc(OCCOCCOCCOCCOCCOCCOC)cc1 (repeat unit)', -46.00),
  ('*CC(*)(C)C(=O)OCC(=O)Nc1cc(C)on1 (repeat unit)', 128.00),
  ('*CCCOC(=O)CCCCCCC(=O)O* (repeat unit)', -52.50),
  ('*C(=O)c1ccc2c(c1)C(=O)N(c1ccc(Cc3ccc(N4C(=O)c5ccc(*)cc5C4=O)c(C)c3)cc1C)C2=O (repeat unit)', 297.50),
  ('*c1ccc(C(=O)Nc2ccc(NC(=O)c3ccc(Oc4ccc(-c5nn(*)c(=O)c6ccccc56)c5ccccc45)cc3)cc2)cc1 (repeat unit)', 347.50);

Now consider a different molecule.
Name the recorded glass transition temperature for *c1ccc(Nc2ccc(C(c3ccc(Nc4ccc(S(*)(=O)=O)cc4)cc3)(C(F)(F)F)C(F)(F)F)cc2)cc1 (repeat unit) . 145.00

----------
Values of glass transition temperature greater than or equal to 200 °C map to 1; values below map to -1.

INSERT INTO measurements (compound, answerlabel) VALUES
  ('*CCCCCCc1nc2cc(NC(=O)CCCCCCC(=O)Nc3ccc4oc(*)nc4c3)ccc2o1 (repeat unit)', -1);

Hi team, for *CC(*)NC(=O)OC(C)(C)C (repeat unit) , is the recorded glass transition temperature at or above 200 °C? -1

Please check the record *CC1CCC(CNC(=O)c2cccc(C(=O)N*)c2)CC1 (repeat unit) and state if its glass transition temperature is at or above 200 °C. 1

Can *c1cc(*)cc(-c2nc3ccccc3o2)c1 (repeat unit) be said to have glass transition temperature at or above 200 °C? 1

glass transition temperature >= 200 °C for *CCCCCCCCCCCC(=O)Oc1ccc(C2(c3ccc(OC(=O)c4ccc5c(c4)C(=O)N(*)C5=O)cc3)OC(=O)c3ccccc32)cc1 (repeat unit) ? -1

Item *CC(*)(C)C(=O)OCCC1CCCCC1 (repeat unit) with glass transition temperature of 200 °C or above? -1
